Data origin: ChEMBL document CHEMBL5346978

study.target: CYP2C9 (Homo sapiens)
Sequence (P11712 whole entry): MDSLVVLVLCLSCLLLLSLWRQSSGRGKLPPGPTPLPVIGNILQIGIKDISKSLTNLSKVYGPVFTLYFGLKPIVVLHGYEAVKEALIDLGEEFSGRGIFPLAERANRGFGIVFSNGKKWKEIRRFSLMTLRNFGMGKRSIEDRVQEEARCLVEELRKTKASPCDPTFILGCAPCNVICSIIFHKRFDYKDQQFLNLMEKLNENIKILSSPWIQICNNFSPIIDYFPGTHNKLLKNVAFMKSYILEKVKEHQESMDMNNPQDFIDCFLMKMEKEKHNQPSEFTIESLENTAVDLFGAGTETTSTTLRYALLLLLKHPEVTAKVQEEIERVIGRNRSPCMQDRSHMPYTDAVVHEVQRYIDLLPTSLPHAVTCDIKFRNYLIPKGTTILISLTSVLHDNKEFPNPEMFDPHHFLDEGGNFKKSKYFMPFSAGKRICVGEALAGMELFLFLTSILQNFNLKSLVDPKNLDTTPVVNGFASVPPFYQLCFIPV
run.description: Inhibition of CYP2C9 in human liver microsomes using diclofenac as substrate assessed as residual activity at 10 uM preincubated for 5 mins followed by substrate addition and measured after 15 mins in presence of NADPH by LC-MS/MS analysis
Assay type: ADME, Microsome
experimental.setup: probe diclofenac, time 20 min, read-out: Activity
outcome.measure: activity at 0.25 h, 10 µM (%)
Enter your answer as a number in %; do not include the unit.

Previously resolved entries follow.
> print(dat)
                  compound.structure.string  value.observed
1  CC(C)Oc1ccc(COc2ccc3c(c2)CCN(S(=O)(=O)CCC(=O)O)C3)cc1C#N            75.4
2  CC(C)Oc1ccc(COc2ccc3c(c2)CCCN(S(=O)(=O)CCO)C3)cc1C#N            53.7
3  CC(C)Oc1ccc(COc2ccc3c(c2)OCCN(S(=O)(=O)CCCO)C3)cc1C#N            57.2
4  CC(C)Oc1ccc(COc2ccc3c(c2)CCCN(S(=O)(=O)CCCO)C3)cc1C#N            67.7
5  CC(C)Oc1ccc(COc2ccc3c(c2)CCCN(S(=O)(=O)CCC(=O)O)C3)cc1C#N            96.2

As a next step, examine the molecule that follows.
[in] For the molecule shown here, CC(C)Oc1ccc(COc2ccc3c(c2)CCN(C(=O)CCC(=O)O)C3)cc1C#N , give the reported activity at 0.25 h, 10 µM.
[out] 27.6

----------
Activity reference
study.target: UniProt P21453
run.description: Agonist activity at S1P1 (unknown origin) expressed in human HEK293/Galpha15 cells assessed as Ca2+ activation at 1 uM measured for 2 hrs by FLIPR analysis relative to control
Type: functional, cell-based
Enter your answer as a number in %; do not include the unit.

Previously resolved entries follow.
> print(dat)
                                   compound    study.target  unit.of.measure  value.observed
1  CC(C)Oc1ccc(COc2ccc3c(c2)CN(S(=O)(=O)CCC(=O)O)CCC3)cc1C#N  UniProt P21453                %               8
2  CC(C)Oc1ccc(COc2ccc3c(c2)CCN(S(=O)(=O)CCCO)C3)cc1C#N  UniProt P21453                %               6

[in] For the compound shown here, CC(C)Oc1ccc(COc2ccc3c(c2)CCN(S(=O)(=O)CCC(=O)O)C3C)cc1C#N (stereo unspecified) , give the reported Activity.
[out] 8

[in] For the compound shown here, CC(C)Oc1ccc(COc2ccc3c(c2)CCCN3S(=O)(=O)CCCO)cc1C#N , give the reported Activity.
[out] 3

[in] For the compound shown here, CC(C)Oc1ccc(COc2ccc3c(c2)CCN(CCCO)C3)cc1C#N , give the reported Activity.
[out] 5

[in] For the compound shown here, CC(C)Oc1ccc(COc2ccc3c(n2)CCN(S(=O)(=O)CCCO)C3)cc1C#N , give the reported Activity.
[out] 10

[in] For the compound shown here, CC(C)Oc1ccc(COc2ccc3c(c2)CN(S(=O)(=O)CCCO)CC3)cc1C#N , give the reported Activity.
[out] 3

[in] For the compound shown here, CC(C)Oc1ccc(COc2ccc3c(c2)CCN(S(=O)(=O)CCCO)C3C)cc1C#N (stereo unspecified) , give the reported Activity.
[out] 12

[in] For the compound shown here, CC(C)Oc1ccc(COc2ccc3c(c2)CN(CCC(=O)O)CC3)cc1C#N , give the reported Activity.
[out] 1

[in] For the compound shown here, CC(C)Oc1ccc(COc2ccc3c(c2)CN(CCC(=O)O)CCC3)cc1C#N , give the reported Activity.
[out] 13

[in] For the compound shown here, COC(=O)CCS(=O)(=O)N1CCc2cc(NCc3ccc(OC(C)C)c(C#N)c3)ccc2C1 , give the reported Activity.
[out] 13

----------
run.description: Microsomal stability in human liver microsomes assessed as parent compound remaining preincubated for 5 mins followed by NADPH addition measured after 30 mins by LC-MS/MS analysis
Format: ADME, Microsome
experimental.setup: time 35 min, read-out: Stability
outcome.measure: remaining at 0.5 h

Previously resolved entries follow.
> print(dat)
                  compound.structure.string     outcome.measure  value.observed
1  CC(C)Oc1ccc(COc2ccc3c(c2)CCN(C(=O)CCC(=O)N(C)C)C3)cc1C#N  remaining at 0.5 h           24.4%
2  CC(=O)NCCC(=O)N1CCc2cc(OCc3ccc(OC(C)C)c(C#N)c3)ccc2C1  remaining at 0.5 h           29.7%

As a next step, examine the compound that follows.
[in] For the compound shown here, CNC(=O)CCS(=O)(=O)N1CCc2cc(OCc3ccc(OC(C)C)c(C#N)c3)ccc2C1 , give the reported remaining at 0.5 h.
[out] 21.9%

----------
study.target: Sphingosine 1-phosphate receptor 1 (Homo sapiens, UniProt P21453)
Sequence (P21453 whole entry): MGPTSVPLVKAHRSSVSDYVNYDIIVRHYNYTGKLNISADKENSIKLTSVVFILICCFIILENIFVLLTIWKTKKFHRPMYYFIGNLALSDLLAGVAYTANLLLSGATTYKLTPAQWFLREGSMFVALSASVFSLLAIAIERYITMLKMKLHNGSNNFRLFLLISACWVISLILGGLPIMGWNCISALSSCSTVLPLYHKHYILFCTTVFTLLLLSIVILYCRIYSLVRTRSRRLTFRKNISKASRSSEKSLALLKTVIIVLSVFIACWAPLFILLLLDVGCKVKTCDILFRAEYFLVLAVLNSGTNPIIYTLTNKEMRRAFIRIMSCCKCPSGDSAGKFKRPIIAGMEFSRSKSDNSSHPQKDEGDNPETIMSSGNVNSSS
run.description: Agonist activity at S1P1 (unknown origin) expressed in PathHunter CHO-K1 EDG1 beta-arrestin cells assessed as beta-arrestin2 recruitment incubated for 90 mins by chemiluminescence based assay
Assay type: functional, cell-based
outcome.measure: pEC50
Please express pEC50 as -log10 of the molar concentration.

Previously resolved entries follow.
> print(dat)
                                   compound  outcome.measure  value.observed
1  CC(C)Oc1ccc(COc2ccc3c(c2)CCN(C(=O)CCC(N)=O)C3)cc1C#N            pEC50            6.96
2  COC(=O)CCCN1CCc2cc(OCc3ccc(OC(C)C)c(C#N)c3)ccc2C1            pEC50            6.81

As a next step, examine the compound that follows.
[in] For the compound shown here, CC(C)Oc1ccc(COc2ccc3c(c2)CCN(CCC(=O)O)C3C)cc1C#N (stereo not drawn) , give the reported pEC50.
[out] 6.98

----------
study.target: Sphingosine 1-phosphate receptor 1 (Homo sapiens, UniProt P21453)
run.description: Agonist activity at S1P1 (unknown origin) expressed in human HEK293/Galpha15 cells assessed as Ca2+ activation measured for 2 hrs by FLIPR analysis
Assay type: functional, cell-based
pEC50 reference
Please express pEC50 as -log10 of the molar concentration.

Previously resolved entries follow.
> print(dat)
                  compound.structure.string  value.observed
1  CC(C)Oc1ccc(COc2ccc3c(c2)OCCN(S(=O)(=O)CC(=O)O)C3)cc1C#N            7.17
2  CC(C)Oc1ccc(COc2ccc3c(c2)CCN(CC(=O)O)C3)cc1C#N            8.98

As a next step, examine the compound that follows.
[in] For the compound shown here, CC(C)Oc1ccc(COc2ccc3c(c2)CCN(C(=O)CCC(=O)O)C3)cc1C#N , give the reported pEC50.
[out] 6.56

----------
study.target: Sphingosine 1-phosphate receptor 1 (Homo sapiens, UniProt P21453)
run.description: Agonist activity at S1P1 (unknown origin) expressed in PathHunter CHO-K1 EDG1 beta-arrestin cells assessed as beta-arrestin2 recruitment incubated for 90 mins by chemiluminescence based assay
Assay type: functional, cell-based
pEC50 reference
Please express pEC50 as -log10 of the molar concentration.

Previously resolved entries follow.
> print(dat)
                                   compound  value.observed
1  CC(C)Oc1ccc(COc2ccc3c(c2)CCN(CCCC(=O)O)C3)cc1C#N            7.01
2  CC(C)Oc1ccc(COc2ccc3c(c2)OCCN(S(=O)(=O)CCCO)C3)cc1C#N            7.13
3  CC(C)Oc1ccc(COc2ccc3c(c2)CCN(S(=O)(=O)CCCO)C3)cc1C#N            6.30

[in] For the compound shown here, CC(C)Oc1ccc(COc2ccc3c(c2)CCN(C(=O)CCC(=O)O)C3)cc1C#N , give the reported pEC50.
[out] 6.34

[in] For the compound shown here, COC(=O)CS(=O)(=O)N1CCc2cc(OCc3ccc(OC(C)C)c(C#N)c3)ccc2C1 , give the reported pEC50.
[out] 6.55

[in] For the compound shown here, CC(=O)NCCC(=O)N1CCc2cc(OCc3ccc(OC(C)C)c(C#N)c3)ccc2C1 , give the reported pEC50.
[out] 6.56

----------
study.target: UniProtKB P08684
Sequence (P08684 whole entry): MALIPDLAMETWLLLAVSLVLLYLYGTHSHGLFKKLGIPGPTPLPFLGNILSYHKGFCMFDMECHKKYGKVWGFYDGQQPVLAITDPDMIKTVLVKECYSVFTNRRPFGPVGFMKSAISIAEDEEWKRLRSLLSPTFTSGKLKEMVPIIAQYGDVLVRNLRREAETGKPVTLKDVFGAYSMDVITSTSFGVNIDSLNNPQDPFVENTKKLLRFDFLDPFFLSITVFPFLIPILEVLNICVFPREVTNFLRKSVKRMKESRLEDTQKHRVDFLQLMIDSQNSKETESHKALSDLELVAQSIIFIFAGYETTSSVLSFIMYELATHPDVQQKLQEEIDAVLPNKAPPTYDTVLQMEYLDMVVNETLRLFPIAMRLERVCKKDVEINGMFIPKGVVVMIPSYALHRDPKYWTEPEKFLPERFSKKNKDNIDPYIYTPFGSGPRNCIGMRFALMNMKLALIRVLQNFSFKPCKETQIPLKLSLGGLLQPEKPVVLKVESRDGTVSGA
run.description: Inhibition of CYP3A4 in human liver microsomes using midazolam as substrate assessed as residual activity at 10 uM preincubated for 5 mins followed by substrate addition and measured after 15 mins in presence of NADPH by LC-MS/MS analysis
Type: ADME, Microsome
experimental.setup: probe midazolam, time 20 min, read-out: Activity
activity at 0.25 h, 10 µM reference
Enter your answer as a number in %; do not include the unit.

[in] For the molecule shown here, CC(C)Oc1ccc(COc2ccc3c(c2)CCN(S(=O)(=O)CCC(=O)O)C3C)cc1C#N (stereo unspecified) , give the reported activity at 0.25 h, 10 µM.
[out] 92

[in] For the molecule shown here, CC(C)Oc1ccc(COc2ccc3c(c2)CCN(CCC(=O)O)C3)cc1C#N , give the reported activity at 0.25 h, 10 µM.
[out] 90.2

[in] For the molecule shown here, CC(C)Oc1ccc(COc2ccc3c(c2)CCCN(S(=O)(=O)CCCO)C3)cc1C#N , give the reported activity at 0.25 h, 10 µM.
[out] 82.4
